Test system: C. auris Ca 9
TEST_METHOD_NOTES: MIC, CLSI M27 broth microdilution
Assay type: cell-based, Candida auris
EXPERIMENTAL_PARAMETERS: Candidozyma auris, CA9; C. auris Ca 9; geometric mean; antifungal drugs; read-out: MIC GM
QUANTITY: MIC (µg/mL)
# value in µg/mL; strip the unit string

Qu. # lookup: MIC of CC[C@H](C)C[C@H](C)CCCCCCCCC(=O)N[C@H]1C[C@@H](O)[C@@H](NCCN)NC(=O)[C@@H]2[C@@H](O)CCN2C(=O)[C@H]([C@H](O)CCN)NC(=O)[C@H]([C@H](O)[C@@H](O)c2ccc(O)cc2)NC(=O)[C@@H]2C[C@@H](O)CN2C(=O)[C@H]([C@@H](C)O)NC1=O [CSF, caspofungin]
Ans. 0.5

Qu. # lookup: MIC of CCC(C)n1ncn(-c2ccc(N3CCN(c4ccc(OCC5COC(Cn6cncn6)(c6ccc(Cl)cc6Cl)O5)cc4)CC3)cc2)c1=O (stereo not shown) [ITC, itraconazole]
Ans. 0.06

Qu. # lookup: MIC of OC(Cn1cncn1)(Cn1cncn1)c1ccc(F)cc1F [FLC, fluconazole]
Ans. 4

Qu. # lookup: MIC of C[C@@H]1[C@H](O)[C@@H](C)/C=C/C=C/C=C/C=C/C=C/C=C/C=C/[C@H](O[C@@H]2O[C@H](C)[C@@H](O)[C@H](N)[C@@H]2O)C[C@@H]2O[C@](O)(C[C@@H](O)C[C@@H](O)[C@H](O)CC[C@@H](O)C[C@@H](O)CC(=O)O[C@H]1C)C[C@H](O)[C@H]2C(=O)O [AMB, amphotericin B]
Ans. 0.25
